Each recorded value in this set is attributed to patent US20090221829A1.

Hi there, I'd appreciate the recorded LD50 for every entry that follows.
ASSAY METHOD TEXT: Oral toxicity test (general symptoms, weight change, lethal case)
Format: in vivo, rats (SD)
APPLIED CONDITIONS: SD, rat, in vivo, 1000 mg/kg; rats, oral, female; read-out: Acute toxicity LD50
Protocol: Meanwhile, the toxicity test of the compound in table II of the present invention was performed using […]. The compound was suspended in propylene glycol. The resulting suspension was medicated respectively on 6 female rats and 5 male rats (SD) of which age are 5 weeks, via oral after 12 hours starvation. The general symptoms, weight change and lethal case of the above rats were investigated. […]

CCCCCCCCOc1c(C[n+]2ccc3cc(OC)c(OC)cc3c2CCc2ccc(C(C)(C)C)cc2)cccc1OC yielded LD50 of > 1200 mg/kg

Data point: CCCCCCCCCCCC1=[N+](Cc2ccccc2F)CCc2cc(OC)c(OC)cc21.[Cl-] ; LD50 = > 1000 mg/kg

Record CCCCCCCCOc1c(C[N+]2=C(CCc3ccc(C(C)(C)C)cc3)c3cc(OC)c(OC)cc3CC2)cccc1OC , field LD50: > 1000 mg/kg

Consider CCCCCCCCCCCC1=[N+](Cc2ccc(C(C)(C)C)cc2)CCc2cc(NC)c(OC)cc21 . Its measured LD50 is > 1500 mg/kg

Summary for this molecule, COc1cc2cc[n+](Cc3cccc(OC)c3OCc3c(F)cccc3Cl)c(CCc3ccc(C(C)(C)C)cc3)c2cc1OC : LD50 is > 1500 mg/kg

* * *

Test system: various kinds of Candida
ASSAY METHOD TEXT: MIC (Minimal Inhibitory Concentration) data
Assay type: cell-based
APPLIED CONDITIONS: C. albicans ATCC 28838; unit assumed
Can you tell me MIC for the items I'm about to list?
Give your result in mg/L as a bare value.

MIC of COc1cc2cc[n+](Cc3cccc(OC)c3OCc3c(F)cccc3Cl)c(CCc3ccc(C(C)(C)C)cc3)c2cc1OC , assay on various kinds of Candida, is 1.56

CCCCCCCCCCCC1=[N+](Cc2ccc(C(C)(C)C)cc2)CCc2cc(OC)c(OC)cc21.[Cl-] tested on various kinds of Candida gave MIC: 1.56

// returns MIC for C[C@@H]1[C@H](O)[C@@H](C)/C=C/C=C/C=C/C=C/C=C/C=C/C=C/[C@H](O[C@@H]2O[C@H](C)[C@@H](O)[C@H](N)[C@@H]2O)C[C@@H]2O[C@](O)(C[C@@H](O)C[C@@H](O)[C@H](O)CC[C@@H](O)C[C@@H](O)CC(=O)O[C@H]1C)C[C@H](O)[C@H]2C(=O)O [Amphotericin B, reference compound] with various kinds of Candida; value = 3.12

Record COc1cc2c(cc1OC)C(CCc1ccc(C(C)(C)C)cc1)=[N+](Cc1cccc(OC)c1OCc1c(F)c(F)c(C(F)(F)F)c(F)c1F)CC2 ; system various kinds of Candida; MIC = 3.12

Bench note, various kinds of Candida: entry CCCCCCCCCCCC1=[N+](Cc2ccc(N)cc2)CCc2cc(OC)c(OC)cc21.Cl.[Cl-] , its MIC = 0.78

The molecule COc1cc2cc[n+](Cc3cccc(OC)c3OCc3ccc(C(F)(F)F)cc3)c(CCc3ccc(C(C)(C)C)cc3)c2cc1OC on various kinds of Candida: MIC was 1.56

* * *

Assignment: determine reported melting point for the given molecules.
Structures can show the parent of a compound that is named as a salt.
Express it in °C; write the number only.

For this molecule ( CCCCCC1=[N+](Cc2c(F)cccc2F)CCc2cc(OC)c(OC)cc21.[Cl-] ), measured melting point is 196

Short answer for CCCCCCCC1=[N+](Cc2ccccc2F)CCc2cc(OC)c(OC)cc21.[Cl-] : melting point was 112

Record COc1cc2c(cc1OC)C(c1ccc(C(C)(C)C)cc1)=[N+](Cc1ccccc1F)CC2.[Cl-] , field melting point: 125

Lab book: melting point of COc1cc2c(cc1OC)C(Cc1ccc(Cl)cc1Cl)=[N+](Cc1ccccc1F)CC2.[Cl-] noted as 182

The molecule identified as COc1cc2cc[n+](Cc3cccc(OC)c3OCc3ccc(C(F)(F)F)cc3)c(CCc3ccc(C(C)(C)C)cc3)c2cc1OC (as salt: chloride) registered its melting point at 110

melting point reported for this molecule COc1cc2c(cc1OC)C(c1ccc(C(C)(C)C)cc1)=[N+](Cc1ccccc1Cl)CC2.[Cl-] : 117

Record CCCCCCCCCCCCCCCC1=[N+](Cc2c(F)cccc2F)CCc2cc(OC)c(OC)cc21.[Cl-] , field melting point: 104

Lookup result for CCCCCCCCCCCCCCCc1c2cc(OC)c(OC)cc2cc[n+]1Cc1ccc(C(C)(C)C)cc1.[Cl-] ; measured melting point: 120

Short answer for COc1cc2c(cc1OC)C(c1ccc(C(C)(C)C)cc1)=[N+](Cc1ccc(F)c(F)c1)CC2.[Cl-] : melting point was 97

* * *

Test system: various kinds of Candida
ASSAY METHOD TEXT: MIC (Minimal Inhibitory Concentration) data
Format: cell-based
APPLIED CONDITIONS: C. albicans ATCC 11651; unit assumed
Please provide measured MIC for the entries that follow.
Kindly answer with a numeric value in µg/mL, unit omitted.

Short answer for CCCCCCCCOc1c(C[n+]2ccc3cc(OC)c(OC)cc3c2CCc2ccc(C(C)(C)C)cc2)cccc1OC : MIC was 1.56

CCCCCCCCCCCC1=[N+](Cc2ccccc2F)CCc2cc(OC)c(OC)cc21.[Cl-] yielded MIC of 1.56

Note to self: MIC recorded for COc1cc2c(cc1OC)C(CCc1ccc(C(C)(C)C)cc1)=[N+](Cc1cccc(OC)c1OCc1c(F)c(F)c(C(F)(F)F)c(F)c1F)CC2 was 6.25

The compound identified as COc1cc2cc[n+](Cc3cccc(OC)c3OCc3c(F)cccc3Cl)c(CCc3ccc(C(C)(C)C)cc3)c2cc1OC registered its MIC at 1.56

Entry C[C@@H]1[C@H](O)[C@@H](C)/C=C/C=C/C=C/C=C/C=C/C=C/C=C/[C@H](O[C@@H]2O[C@H](C)[C@@H](O)[C@H](N)[C@@H]2O)C[C@@H]2O[C@](O)(C[C@@H](O)C[C@@H](O)[C@H](O)CC[C@@H](O)C[C@@H](O)CC(=O)O[C@H]1C)C[C@H](O)[C@H]2C(=O)O [Amphotericin B, reference compound] ; MIC = 1.56

Form field MIC, entry COc1cc2cc[n+](Cc3cccc(OC)c3OCc3ccc(C(F)(F)F)cc3)c(CCc3ccc(C(C)(C)C)cc3)c2cc1OC : 0.78

* * *

For each entry below, report its MIC value.
Test system: various kinds of Candida
ASSAY METHOD TEXT: MIC (Minimal Inhibitory Concentration) data
Assay type: cell-based
APPLIED CONDITIONS: C. albicans ATCC 11651; unit assumed
Give just the numeric value; µg/mL need not be written.

// recorded MIC for CCCCCCCCCCCC1=[N+](Cc2ccc(N)cc2)CCc2cc(OC)c(OC)cc21.Cl.[Cl-] : 3.12

Record COc1cc2c(cc1OC)C(CCc1ccc(C(C)(C)C)cc1)=[N+](Cc1cccc(OC)c1OCc1ccc(C(F)(F)F)cc1)CC2 . Reported MIC: 3.12

GET /value?item= CCCCCCCCOc1c(C[N+]2=C(CCc3ccc(C(C)(C)C)cc3)c3cc(OC)c(OC)cc3CC2)cccc1OC &field=MIC returns 3.12

Field MIC (entry CCCCCCCCCCCC1=[N+](Cc2ccc(NC(=O)OC(C)(C)C)cc2)CCc2cc(OC)c(OC)cc21.[Cl-] ) reads 1.56

Record CCCCCCCCCCCC1=[N+](Cc2ccc(C(C)(C)C)cc2)CCc2cc(OC)c(OC)cc21.[Cl-] . Reported MIC: 0.78

The reported value for COc1cc2cc[n+](Cc3cccc(OC)c3OCc3c(F)c(F)c(C(F)(F)F)c(F)c3F)c(CCc3ccc(C(C)(C)C)cc3)c2cc1OC.[Cl-] in terms of MIC is 3.12

* * *

Test system: various kinds of Candida
ASSAY METHOD TEXT: MIC (Minimal Inhibitory Concentration) data
Type: cell-based
APPLIED CONDITIONS: C. albicans ATCC 28838; unit assumed
Answer each item with its documented MIC.

Please fill in: MIC reported for CCCCCCCCOc1c(C[N+]2=C(CCc3ccc(C(C)(C)C)cc3)c3cc(OC)c(OC)cc3CC2)cccc1OC = 1.56 µg/mL

Recorded MIC (compound COc1cc2cc[n+](Cc3cccc(OC)c3OCc3c(F)c(F)c(C(F)(F)F)c(F)c3F)c(CCc3ccc(C(C)(C)C)cc3)c2cc1OC.[Cl-] ): 3.12 µg/mL

Noted for CCCCCCCCCCCC1=[N+](Cc2ccc(NC(=O)OC(C)(C)C)cc2)CCc2cc(OC)c(OC)cc21.[Cl-] : its MIC reads 1.56 µg/mL

response.value for COc1cc2c(cc1OC)C(CCc1ccc(C(C)(C)C)cc1)=[N+](Cc1cccc(OC)c1OCc1ccc(C(F)(F)F)cc1)CC2 (field: MIC) = 1.56 µg/mL

Field MIC (entry CCCCCCCCCCCC1=[N+](Cc2ccccc2F)CCc2cc(OC)c(OC)cc21.[Cl-] ) reads 1.56 µg/mL

For reference, reported MIC for CCCCCCCCOc1c(C[n+]2ccc3cc(OC)c(OC)cc3c2CCc2ccc(C(C)(C)C)cc2)cccc1OC stands at 1.56 µg/mL
